Data provenance is PubChem BioAssay.

assayed_system: Potassium voltage-gated channel subfamily KQT member 1 (Homo sapiens)
experiment_description: KCNQ1 channel current potentiators, confirmation, orthogonal assay for KCNQ1 potentiator project, IonWorks patch clamp, KCNQ1-CHO cells (AID 493184)
measurement_parameters: automated patch clamp current, at 10 µM
Activity calls are given as the source filed them.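 Rule for the calls: active = current rise at least 3 SD above the untreated control mean in each of two repeat wells; inactive = the rest.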
Outcomes: TRUE for active, FALSE for inactive

> print(dat)
                                    compound                            assayed.system  group
 1     CC(C)CCn1c(=O)c2ccccc2n2c(=S)[nH]nc12  Potassium voltage-gated channel subfamily KQT member 1 (Homo sapiens)  FALSE
 2  COCC(=O)Nc1nnc(SCC(=O)N2C(C)CCCC2C)s1 (stereo not drawn)  Potassium voltage-gated channel subfamily KQT member 1 (Homo sapiens)  FALSE
 3  CN(C)/C=N/S(=O)(=O)c1cccn1-c1ncc(C(F)(F)F)cc1Cl  Potassium voltage-gated channel subfamily KQT member 1 (Homo sapiens)  FALSE
 4     CCOc1ccc(S(=O)(=O)Nc2cc(OC)ccc2OC)cc1  Potassium voltage-gated channel subfamily KQT member 1 (Homo sapiens)  FALSE
 5   O=c1cc(-c2ccccc2)nc2cc(-c3ccco3)[nH]n12  Potassium voltage-gated channel subfamily KQT member 1 (Homo sapiens)  FALSE
 6  c1ccc2c(c1)OCC(CNc1ncnc3nc[nH]c13)O2 (stereo not drawn)  Potassium voltage-gated channel subfamily KQT member 1 (Homo sapiens)  FALSE
 7     N=c1ccn(CC(=O)c2ccc(-c3ccccc3)cc2)cc1  Potassium voltage-gated channel subfamily KQT member 1 (Homo sapiens)  FALSE
 8     CC1(C)CC(N2CCOCC2)=CC(=[N+]2CCOCC2)C1  Potassium voltage-gated channel subfamily KQT member 1 (Homo sapiens)  FALSE
 9    C/C(=N/NC(=O)c1cc(C2CC2)[nH]n1)c1cccs1  Potassium voltage-gated channel subfamily KQT member 1 (Homo sapiens)  FALSE
10            O=C(NC(=S)NCCC1=CCCCC1)c1ccco1  Potassium voltage-gated channel subfamily KQT member 1 (Homo sapiens)  FALSE
11  CSc1ccccc1C(=O)NC1CCCc2ccccc21 (stereo not drawn)  Potassium voltage-gated channel subfamily KQT member 1 (Homo sapiens)  FALSE
12  CN(C)c1ccc(-c2nn3c(-c4ccccc4Cl)nnc3s2)cc1  Potassium voltage-gated channel subfamily KQT member 1 (Homo sapiens)  FALSE
13       COc1ccc(S(=O)(=O)NCCOc2ccccc2)cc1OC  Potassium voltage-gated channel subfamily KQT member 1 (Homo sapiens)  FALSE
14  COc1ccccc1N1CCN(C(=O)C2CCN(C(=O)c3cccc(Cl)c3)CC2)CC1  Potassium voltage-gated channel subfamily KQT member 1 (Homo sapiens)  FALSE
15  COc1ccc(-c2sc(C(=O)c3ccc(Cl)cc3Cl)cc2CC(=O)O)cc1  Potassium voltage-gated channel subfamily KQT member 1 (Homo sapiens)   TRUE
16          CCn1c(=S)[nH]c2sc3c(c2c1=O)CCCC3  Potassium voltage-gated channel subfamily KQT member 1 (Homo sapiens)  FALSE
17  CCOC(=O)/C(C)=N/NC(=O)c1cccc([N+](=O)[O-])c1  Potassium voltage-gated channel subfamily KQT member 1 (Homo sapiens)  FALSE
18   Cc1cccc(C(=O)NC(=S)NNC(=O)c2ccccc2Cl)c1  Potassium voltage-gated channel subfamily KQT member 1 (Homo sapiens)  FALSE
